Provenance of the data: patent US10150728B2

target: recombinant human ACC2 (Homo sapiens (Human), UniProt O00763); experiment: Measurement of inhibitory activity on human ACC2 (MALDI-TOF MS, acetyl CoA to malonyl CoA conversion); format: biochemical; conditions: Tables 155-159
Sequence (O00763 27-2458): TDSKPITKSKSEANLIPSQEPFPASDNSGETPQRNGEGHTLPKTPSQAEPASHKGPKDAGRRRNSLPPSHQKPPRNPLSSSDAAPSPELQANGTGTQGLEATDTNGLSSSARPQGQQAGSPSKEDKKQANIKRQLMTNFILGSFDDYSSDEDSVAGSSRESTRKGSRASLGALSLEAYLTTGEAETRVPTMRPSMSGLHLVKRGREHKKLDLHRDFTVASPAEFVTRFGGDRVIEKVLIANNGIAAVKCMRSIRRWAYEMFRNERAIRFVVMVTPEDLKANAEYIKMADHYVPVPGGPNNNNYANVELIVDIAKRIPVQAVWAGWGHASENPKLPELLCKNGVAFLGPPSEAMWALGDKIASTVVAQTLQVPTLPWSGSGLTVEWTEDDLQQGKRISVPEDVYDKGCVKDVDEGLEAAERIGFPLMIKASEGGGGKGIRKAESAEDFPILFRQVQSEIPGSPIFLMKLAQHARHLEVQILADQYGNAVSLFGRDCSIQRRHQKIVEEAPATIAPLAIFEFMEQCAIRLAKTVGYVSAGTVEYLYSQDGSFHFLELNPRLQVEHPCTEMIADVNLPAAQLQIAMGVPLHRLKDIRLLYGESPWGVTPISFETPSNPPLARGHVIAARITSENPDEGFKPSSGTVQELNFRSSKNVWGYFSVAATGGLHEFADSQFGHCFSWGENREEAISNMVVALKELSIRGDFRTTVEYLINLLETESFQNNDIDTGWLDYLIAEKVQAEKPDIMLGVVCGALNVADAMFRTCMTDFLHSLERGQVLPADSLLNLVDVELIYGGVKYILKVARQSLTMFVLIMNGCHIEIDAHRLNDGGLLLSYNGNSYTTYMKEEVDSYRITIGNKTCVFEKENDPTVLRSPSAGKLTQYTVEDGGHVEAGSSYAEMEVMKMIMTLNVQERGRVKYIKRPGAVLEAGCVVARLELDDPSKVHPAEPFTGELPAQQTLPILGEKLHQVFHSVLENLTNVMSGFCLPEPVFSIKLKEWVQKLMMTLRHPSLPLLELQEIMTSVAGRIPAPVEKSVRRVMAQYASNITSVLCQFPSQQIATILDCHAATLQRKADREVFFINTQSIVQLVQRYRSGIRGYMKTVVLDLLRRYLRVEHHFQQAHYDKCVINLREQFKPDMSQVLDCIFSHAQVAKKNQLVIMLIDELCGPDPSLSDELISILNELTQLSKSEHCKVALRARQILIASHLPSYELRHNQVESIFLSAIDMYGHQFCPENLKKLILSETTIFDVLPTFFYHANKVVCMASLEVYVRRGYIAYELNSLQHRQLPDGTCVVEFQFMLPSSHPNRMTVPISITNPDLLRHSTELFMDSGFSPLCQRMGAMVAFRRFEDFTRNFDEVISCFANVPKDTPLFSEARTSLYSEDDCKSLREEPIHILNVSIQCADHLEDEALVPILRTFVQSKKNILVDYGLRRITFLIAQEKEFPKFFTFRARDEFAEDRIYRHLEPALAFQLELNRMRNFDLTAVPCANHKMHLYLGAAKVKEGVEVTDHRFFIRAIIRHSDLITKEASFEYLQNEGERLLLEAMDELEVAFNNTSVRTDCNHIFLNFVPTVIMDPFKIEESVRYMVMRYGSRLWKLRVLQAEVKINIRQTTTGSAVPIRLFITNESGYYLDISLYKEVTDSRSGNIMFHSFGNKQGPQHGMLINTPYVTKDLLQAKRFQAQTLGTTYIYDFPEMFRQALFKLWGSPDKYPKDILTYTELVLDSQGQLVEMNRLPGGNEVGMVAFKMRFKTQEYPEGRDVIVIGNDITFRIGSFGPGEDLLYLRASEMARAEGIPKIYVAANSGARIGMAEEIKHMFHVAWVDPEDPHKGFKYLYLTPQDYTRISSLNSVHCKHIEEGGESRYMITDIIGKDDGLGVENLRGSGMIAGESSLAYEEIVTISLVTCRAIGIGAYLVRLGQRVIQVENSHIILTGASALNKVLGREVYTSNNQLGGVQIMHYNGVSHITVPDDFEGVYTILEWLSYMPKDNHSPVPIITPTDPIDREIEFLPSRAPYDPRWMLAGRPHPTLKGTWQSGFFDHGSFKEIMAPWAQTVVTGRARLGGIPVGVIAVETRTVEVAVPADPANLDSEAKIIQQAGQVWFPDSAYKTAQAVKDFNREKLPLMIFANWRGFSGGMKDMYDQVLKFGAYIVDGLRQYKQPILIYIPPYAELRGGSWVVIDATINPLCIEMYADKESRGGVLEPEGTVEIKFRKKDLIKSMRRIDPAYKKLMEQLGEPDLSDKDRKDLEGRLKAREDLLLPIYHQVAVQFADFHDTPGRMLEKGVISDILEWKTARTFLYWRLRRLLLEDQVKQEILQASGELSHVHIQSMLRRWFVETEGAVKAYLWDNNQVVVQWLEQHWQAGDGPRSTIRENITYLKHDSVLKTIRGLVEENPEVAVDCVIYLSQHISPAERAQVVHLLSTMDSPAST
pIC50: −log10 of the molar value.
PROPERTY: pIC50

- COMPOUND: "CCOc1ccc2nc(O[C@H]3CC[C@H](OC[C@H](C)NC(C)=O)CC3)n(C)c2c1C [Compound I-606]"
  PROPERTY: "pIC50"
  REPORTED RESULT: 7.13
- COMPOUND: "CCOc1c(F)cc2c(nc(O[C@H]3CC[C@H](OC[C@H](C)NC(C)=O)CC3)n2C)c1F [Compound I-685]"
  PROPERTY: "pIC50"
  REPORTED RESULT: 6.77
- COMPOUND: "CC(=O)N[C@@H](C)CO[C@H]1CC[C@H](Oc2nc3c(F)cc(OCC(F)F)c(Cl)c3n2C)CC1 [Compound I-637]"
  PROPERTY: "pIC50"
  REPORTED RESULT: 8.40
- COMPOUND: "CC(=O)N[C@@H](C)CO[C@H]1CC[C@H](Oc2nc3ccc(Br)cc3s2)CC1 [Compound I-547]"
  PROPERTY: "pIC50"
  REPORTED RESULT: 6.98
- COMPOUND: "CC(=O)N[C@@H](C)CO[C@H]1CC[C@H](Oc2ncc(-c3ncc(F)cn3)cc2Cl)CC1 [Compound I-522]"
  PROPERTY: "pIC50"
  REPORTED RESULT: 8.10
- COMPOUND: "CC(=O)N[C@@H](C)CO[C@H]1CC[C@H](Oc2ncc3nc(OCC4CC4(F)F)sc3c2F)CC1 (stereo partly shown) [Compound I-253]"
  PROPERTY: "pIC50"
  REPORTED RESULT: 7.96
- COMPOUND: "CC(=O)N[C@@H](C)CO[C@H]1CC[C@H](Oc2ncc3nc(O[C@H]4CCOC4)sc3c2F)CC1 [Compound I-276]"
  PROPERTY: "pIC50"
  REPORTED RESULT: 7.89

###

pIC50 overview
biological target: recombinant human ACC2 (Homo sapiens (Human), UniProt O00763); test: Measurement of inhibitory activity on human ACC2 (MALDI-TOF MS, acetyl CoA to malonyl CoA conversion); type: biochemical; conditions: Tables 155-159
pIC50: −log10 of the molar value.

- COMPOUND STRING: "CC(=O)N[C@@H](C)CO[C@H]1CC[C@H](Oc2cc3sc(OCC4(C#N)CC4)nc3cn2)CC1"
  SUBJECT OF TEST: "recombinant human ACC2 (Homo sapiens (Human), UniProt O00763)"
  pIC50: 6.43
- COMPOUND STRING: "CC(=O)N[C@@H](C)CO[C@H]1CC[C@H](Oc2ccc3nc(O[C@H]4C[C@@H](C#N)C4)sc3c2F)CC1"
  SUBJECT OF TEST: "recombinant human ACC2 (Homo sapiens (Human), UniProt O00763)"
  pIC50: 7.13
- COMPOUND STRING: "CC(=O)N[C@@H](C)CO[C@H]1CC[C@H](Oc2ncc3nc(OC4CC4)sc3c2F)CC1"
  SUBJECT OF TEST: "recombinant human ACC2 (Homo sapiens (Human), UniProt O00763)"
  pIC50: 8.40
- COMPOUND STRING: "CC(=O)N[C@@H](C)CO[C@H]1CC[C@H](Oc2ccc3nc(OC4CC4)sc3c2F)CC1"
  SUBJECT OF TEST: "recombinant human ACC2 (Homo sapiens (Human), UniProt O00763)"
  pIC50: 8.00
- COMPOUND STRING: "C[C@@H](CO[C@H]1CC[C@H](Oc2ccc3nc(C(C)(F)F)sc3c2F)CC1)NC(N)=O"
  SUBJECT OF TEST: "recombinant human ACC2 (Homo sapiens (Human), UniProt O00763)"
  pIC50: 7.32
- COMPOUND STRING: "CC(=O)N[C@@H](C)CO[C@H]1CC[C@H](Oc2ccc3nc(CC4CC4)n(C)c3n2)CC1"
  SUBJECT OF TEST: "recombinant human ACC2 (Homo sapiens (Human), UniProt O00763)"
  pIC50: 6.96
- COMPOUND STRING: "CCOc1nc(F)c2nc(O[C@H]3CC[C@H](OC[C@H](C)NC(C)=O)CC3)n(C)c2c1Cl"
  SUBJECT OF TEST: "recombinant human ACC2 (Homo sapiens (Human), UniProt O00763)"
  pIC50: 8.30
